- assayExplanation: Apparent permeability of the compound incubated for 5 hrs by LC-MS/MS analysis based PAMPA method
- Format: ADME
- details: PAMPA
measurementType: Papp at 5 h
Your answer should be a number followed by the unit of measure.

For this compound ( "COc1ccc(-c2ccc(Sc3cc(=O)n(O)c(=O)[nH]3)cc2)cc1" ), measured Papp at 5 h is 1.1 ×10⁻⁶ cm/s

====

- assayExplanation: Cytotoxicity against human HEL 299 cells assessed as cell viability at 10 uM incubated for 168 hrs by MTS-based tetrazolium reduction assay relative to control
- details: HEL 299 cells, read-out: Activity
measurementType: viability at 168 h, 10 µM (%)
Value expressed in %; do not type the unit.

testSmiles | viability at 168 h, 10 µM [%]
COc1cccc(Sc2cc(=O)n(O)c(=O)n2C)c1 | 135
O=c1cc(Sc2ccccc2Br)[nH]c(=O)n1O | 101
Cn1c(Sc2ccc(F)cc2)cc(=O)n(O)c1=O | 117
O=c1cc(Sc2cccc(-c3ccc(C(F)(F)F)cc3)c2)[nH]c(=O)n1O | 110
O=c1cc(Sc2ccc(-c3ccc(F)cc3)cc2)[nH]c(=O)n1O | 99
CCn1c(Sc2cccc(Cl)c2)cc(=O)n(O)c1=O | 1.3
O=c1cc(Sc2ccc(-c3ccc(Cl)cc3)cc2)[nH]c(=O)n1O | 102
O=c1cc(Sc2cccc(-c3ccc(F)cc3)c2)[nH]c(=O)n1O | 100
O=c1cc(Sc2cccc(-c3cccc(C(F)(F)F)c3)c2)[nH]c(=O)n1O | 118
Cn1c(Sc2ccc(C(F)(F)F)cc2)cc(=O)n(O)c1=O | 107

For this compound ( "CCn1c(Sc2ccc(F)cc2)cc(=O)n(O)c1=O" ), measured viability at 168 h, 10 µM is 114

For this compound ( "CCc1ccccc1Sc1cc(=O)n(O)c(=O)n1C" ), measured viability at 168 h, 10 µM is 108
